molecular target: UniProt Q99572; assay: Ca2+ flux (FLIPR) in 1321N1 cells expressing recombinant human P2X7 channel; type: cell-based; conditions: 250 μM BzATP
pIC50: −log10 of the molar value.
Measured Parameter: pIC50

Examples with answers:
molecule="CC1c2nnn(-c3ncco3)c2CCN1C(=O)c1cccc(C(F)(F)F)c1Cl (centres unmarked)" measured_parameter=pIC50 value=8.07
molecule="CC1c2c(nnn2-c2ccccc2)CCN1C(=O)c1cccc(C(F)(F)F)c1Cl (centres unmarked)" measured_parameter=pIC50 value=5.93
molecule=O=C(c1cccc(C(F)(F)F)c1Cl)N1CCc2c(ncn2-c2ccccc2)C1 measured_parameter=pIC50 value=7.74

P: Cn1nc2c(c1-c1cncnc1)CCN(C(=O)c1cccc(C(F)(F)F)c1Cl)C2
Q: Cc1cc(C)nc(-n2nnc3c2CCN(C(=O)c2cccc(Cl)c2Cl)C3C)c1 (centres unmarked)
R: CC(C)C1c2ncn(-c3cnccn3)c2CCN1C(=O)c1cccc(C(F)(F)F)c1Cl (centres unmarked)
S: COc1cccnc1-n1nnc2c1CCN(C(=O)c1cccc(C(F)(F)F)c1Cl)C2C (centres unmarked)
T: O=C(c1cccc(C(F)(F)F)c1F)N1CCc2c(ncn2-c2ccc(F)cn2)C1
Exercise: Order the records by pIC50, with each subsequent value no larger than the one before. Quick reminder: the answer is the labels in the order asked.
Solution: S, R, Q, P, T

---

target: P2X7 (Homo sapiens (Human)); assay: Ca2+ flux (FLIPR) in 1321N1 cells expressing recombinant human P2X7 channel; assay type: cell-based; settings: 250 μM BzATP
Measured Parameter: IC50 (µM)

a: CC1CN(C(=O)c2cccc(Cl)c2Cl)Cc2nnn(-c3ccccc3)c21 (centres unmarked)
b: O=C(c1cccc(Cl)c1Cl)N1CCc2c(nnn2-c2cnccn2)C1
c: CC1c2ncn(-c3ncccc3F)c2CCN1C(=O)c1cccc(C(F)(F)F)c1Cl (centres unmarked)
d: CC1c2nnn(-c3ccc(F)cc3)c2CCN1C(=O)c1cccc(C(F)(F)F)c1Cl (centres unmarked)
e: O=C(c1cccc(C(F)(F)F)c1Cl)N1CCc2c(-c3cnccn3)n[nH]c2C1
Exercise: Hey, quick one: sort these by IC50, low to high? Quick reminder: the answer is the labels in the order asked.
Solution: e, b, d, c, a
(e: 0.0045 µM, b: 0.0075 µM, d: 0.0169 µM, c: 0.0785 µM, a: 1.14 µM)

---

target: P2X7 (Homo sapiens (Human), UniProt Q99572); test: P2X7 antagonism in human PBMCs (LPS + Bz-ATP induced IL-1β release, ELISA); type: cell-based; details: compound 10 μM, LPS 30 ng/ml, Bz-ATP 0.5 mM;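 further: PBMCs from donor human blood, with a further 1.5 h incubation of the cells in the assay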
Sequence (Q99572 whole entry): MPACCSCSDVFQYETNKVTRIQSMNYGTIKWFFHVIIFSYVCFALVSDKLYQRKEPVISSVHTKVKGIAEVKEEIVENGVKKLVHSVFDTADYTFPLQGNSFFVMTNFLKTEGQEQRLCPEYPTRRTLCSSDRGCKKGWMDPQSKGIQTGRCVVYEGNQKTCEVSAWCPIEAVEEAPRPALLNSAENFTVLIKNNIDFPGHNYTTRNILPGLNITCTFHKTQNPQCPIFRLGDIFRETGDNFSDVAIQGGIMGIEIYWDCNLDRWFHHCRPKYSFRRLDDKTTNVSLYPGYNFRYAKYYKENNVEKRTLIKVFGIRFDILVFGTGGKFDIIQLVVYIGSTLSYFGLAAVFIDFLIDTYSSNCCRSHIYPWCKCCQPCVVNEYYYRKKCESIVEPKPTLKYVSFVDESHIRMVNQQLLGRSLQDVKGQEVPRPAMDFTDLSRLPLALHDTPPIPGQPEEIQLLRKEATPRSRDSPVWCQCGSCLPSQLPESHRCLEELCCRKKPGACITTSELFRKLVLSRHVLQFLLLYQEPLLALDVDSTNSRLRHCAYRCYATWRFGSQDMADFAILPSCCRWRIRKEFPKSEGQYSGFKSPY
Measured Parameter: PBMC 10 μM (% control)

Examples with answers:
molecule="CC1Cc2c(nnn2-c2ncc(F)cn2)CN1C(=O)c1ccc(Cl)c(F)c1Cl (stereo not drawn) [Example 216]" value=0.6
molecule="C[C@H]1c2n[nH]c(-c3ncc(F)cn3)c2CCN1C(=O)c1cccc(C(F)(F)F)c1Cl (single isomer, unassigned) [Example 224]" value=103.3
molecule="Cc1c(C(=O)N2Cc3nnn(-c4cc[nH]n4)c3CC2C)cccc1C(F)(F)F (stereo not drawn) [Example 154]" value=−0.6

A: C[C@@H]1Cc2c(nnn2-c2ncccc2F)CN1C(=O)c1cccc(C(F)(F)F)c1Cl (single isomer, unassigned) [Example 167]
B: C[C@H]1c2ncn(-c3ccc(F)cc3)c2CCN1C(=O)c1cccc(C(F)(F)F)c1Cl (single isomer, unassigned) [Example 47]
C: O=C(c1cccc(C(F)(F)F)c1Cl)N1CCc2c(-c3ncccn3)n[nH]c2C1 [Example 98]
D: C[C@H]1c2nnn(-c3cnccn3)c2CCN1C(=O)c1ccc(F)c(Cl)c1Cl (single isomer, unassigned) [Example 144]
E: CC1Cc2c(nnn2-c2cc(F)ccn2)CN1C(=O)c1cccc(C(F)(F)F)c1Cl (stereo not drawn) [Example 176]
Exercise: Your job: order these 5 records by PBMC 10 μM (% control), ascending. Quick reminder: the answer is the labels in the order asked.
Solution: B, A, E, D, C
(B: −1.1 % control, A: 4.2 % control, E: 7.3 % control, D: 19.6 % control, C: 32.5 % control)

---

target: P2X7 (Homo sapiens (Human), UniProt Q99572); test: Ca2+ flux (FLIPR) in 1321N1 cells expressing recombinant human P2X7 channel; format: cell-based; conditions: 250 μM BzATP;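 further: Calcium-4 dye-loaded cells exposed to compound for 30 min before agonist addition, fluorescence change read 180 s after agonist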
Where a name gives a salt, the structure may show the parent alone.
Measured Parameter: IC50 (nM)

molecule="CC1c2nnn(-c3cnccn3)c2C=CN1C(=O)c1cccc(C(F)(F)F)c1Cl (stereo not shown)" output_unit=nM value=4.2

A: CC1Cc2c(nnn2-c2cc[nH]n2)CN1C(=O)c1cccc(C(F)(F)F)c1F (stereo not shown)
B: O=C(c1cccc(C(F)(F)F)c1Cl)N1CCc2c(-c3ccccn3)n[nH]c2C1 [Example 93, TFA salt]
C: CC1c2nnn(-c3cncnc3)c2C=CN1C(=O)c1cccc(C(F)(F)F)c1Cl (stereo not shown)
Exercise: Order the records by IC50, with each subsequent value no larger than the one before. Quick reminder: the answer is the labels in the order asked.
Solution: C, B, A
(C: 1190 nM, B: 7.9 nM, A: 3.9 nM)

---

molecular target: P2X7 (Homo sapiens (Human)); assay: P2X7 antagonism in human PBMCs (LPS + Bz-ATP induced IL-1β release, ELISA); format: cell-based; settings: compound 10 μM, LPS 30 ng/ml, Bz-ATP 0.5 mM
Measured Parameter: PBMC 10 μM (% control)

Examples with answers:
compound="Cc1cc(C)nc(-n2nnc3c2CCN(C(=O)c2cccc(C(F)(F)F)c2Cl)C3C)n1 (stereo not shown)" test_system="P2X7 (Homo sapiens (Human))" measured_parameter="PBMC 10 μM (% control)" value=−2.6
compound="C[C@H]1Cc2c(nnn2-c2cc(F)ccn2)CN1C(=O)c1cccc(C(F)(F)F)c1Cl (single isomer, unassigned)" test_system="P2X7 (Homo sapiens (Human))" measured_parameter="PBMC 10 μM (% control)" value=0.0
compound="CC1Cc2c(nnn2-c2ncccc2F)CN1C(=O)c1cccc(Cl)c1Cl (stereo not shown)" test_system="P2X7 (Homo sapiens (Human))" measured_parameter="PBMC 10 μM (% control)" value=−0.9
compound="CC1c2ncn(-c3ncccn3)c2CCN1C(=O)c1cccc(C(F)(F)F)c1Cl (stereo not shown)" test_system="P2X7 (Homo sapiens (Human))" measured_parameter="PBMC 10 μM (% control)" value=6.4
compound="Cc1cnc(-n2nnc3c2CCN(C(=O)c2cccc(Cl)c2Cl)C3C)c(C)c1 (stereo not shown)" test_system="P2X7 (Homo sapiens (Human))" measured_parameter="PBMC 10 μM (% control)" value=101.5

P: O=C(c1cccc(C(F)(F)F)c1Cl)N1CCc2c(nnn2-c2ncc(F)cn2)C1
Q: CC1Cc2c(nnn2-c2ccccn2)CN1C(=O)c1cccc(C(F)(F)F)c1Cl (stereo not shown)
R: C[C@H]1Cc2c(nnn2-c2ncc(F)cn2)CN1C(=O)c1ccnc(C(F)(F)F)c1Cl (single isomer, unassigned)
S: O=C(c1cccc(Cl)c1Cl)N1CCc2c(nnn2-c2ncccn2)C1
T: C[C@@H]1Cc2c(nnn2-c2cc(F)ccn2)CN1C(=O)c1cccc(C(F)(F)F)c1Cl (single isomer, unassigned)
Exercise: Order the records by PBMC 10 μM (% control), with each subsequent value no larger than the one before. Quick reminder: the answer is the labels in the order asked.
Solution: Q, S, T, R, P

I: Cn1ccc(-n2nnc3c2CCN(C(=O)c2cccc(C(F)(F)F)c2Cl)C3)n1
II: Cc1c(C(=O)N2CCc3c(nnn3-c3ncccn3)C2)cccc1C(F)(F)F
III: Cc1c(C(=O)N2Cc3nnn(-c4ncc(F)cn4)c3CC2C)cccc1C(F)(F)F (stereo not shown)
IV: CC1Cc2c(nnn2-c2ccccn2)CN1C(=O)c1cccc(Cl)c1Cl (stereo not shown)
V: Cc1nc2c(n1-c1ccccc1)CCN(C(=O)c1cccc(C(F)(F)F)c1Cl)C2
Exercise: Your job: order these 5 records by PBMC 10 μM (% control), ascending. Quick reminder: the answer is the labels in the order asked.
Solution: V, IV, II, III, I

a: O=C(c1ccc(Cl)cc1F)N1CCc2c(nnn2-c2ccccn2)C1
b: CC1c2ncn(-c3ncccc3F)c2CCN1C(=O)c1cccc(C(F)(F)F)c1Cl (stereo not shown)
c: Cc1cccc(-n2nnc3c2CCN(C(=O)c2cccc(C(F)(F)F)c2Cl)[C@@H]3C)n1 (single isomer, unassigned)
d: C[C@@H]1Cc2c(nnn2-c2ccc(F)cc2)[C@H](C)N1C(=O)c1cccc(C(F)(F)F)c1Cl
Exercise: Order the records by PBMC 10 μM (% control), with each subsequent value no larger than the one before. Quick reminder: the answer is the labels in the order asked.
Solution: c, a, d, b

a: O=C(c1cccc(C(F)(F)F)c1F)N1CCc2c(nnn2-c2cnccn2)C1
b: CC1c2nnn(-c3ncccn3)c2CCN1C(=O)c1cccc(C(F)(F)F)c1Cl (single isomer, unassigned) [Example 88]
Exercise: Could you determine which record has the numerically smaller PBMC 10 μM (% control)? Candidates: a and b Give the label of your selection.
Solution: a
(a: 6.8 % control, b: 13.3 % control)

a: COCCn1ccc(-n2nnc3c2CCN(C(=O)c2cccc(C(F)(F)F)c2Cl)[C@@H]3C)n1 (single isomer, unassigned)
b: C[C@@H]1Cc2c(nnn2-c2ncccn2)CN1C(=O)c1cccc(C(F)(F)F)c1Cl (single isomer, unassigned)
c: O=C(c1cccc(C(F)(F)F)c1F)N1CCc2c(ncn2-c2ccn[nH]2)C1
Exercise: Your job: order these 3 records by PBMC 10 μM (% control), ascending. Quick reminder: the answer is the labels in the order asked.
Solution: c, b, a
(c: 10.2 % control, b: 17.8 % control, a: 74.3 % control)

a: Cc1c(C(=O)N2CCc3c(nnn3-c3ncccn3)C2C)cccc1C(F)(F)F (stereo not shown)
b: C[C@H]1c2nnn(-c3ncccn3)c2CCN1C(=O)c1cccc(C(F)(F)F)c1F (single isomer, unassigned)
c: CC1CN(C(=O)c2cccc(Cl)c2Cl)Cc2nnn(-c3ccc(F)cc3)c21 (stereo not shown)
Exercise: Your job: order these 3 records by PBMC 10 μM (% control), ascending. Quick reminder: the answer is the labels in the order asked.
Solution: a, c, b

a: O=C(c1cccc(Cl)c1Cl)N1CCc2c(nc(C(F)(F)F)n2-c2ccccc2)C1
b: Cc1cnc(-n2nnc3c2CCN(C(=O)c2cccc(C(F)(F)F)c2Cl)C3C)c(C)c1 (stereo not shown)
Exercise: Compare the recorded PBMC 10 μM (% control) of a and b ; state which is larger. Give the label of your selection.
Solution: b

P: C[C@@H]1c2nnn(-c3ccn[nH]3)c2C[C@H](C)N1C(=O)c1cccc(C(F)(F)F)c1Cl
Q: CC1c2nnn(-c3ncccc3F)c2CCN1C(=O)c1cccc(C(F)(F)F)c1Cl (stereo not shown)
Exercise: Could you determine which record has the numerically smaller PBMC 10 μM (% control)? Candidates: P and Q Give the label of your selection.
Solution: Q
